Source of measurements: patent US20240327480A1

Entries and their fluorescence relative to imm3 binding (=100) values follow.
- assaySystem: T1, AA111-228 DNA-binding domain of RXR-alpha (human, UniProt P19793 111-228)
- T1 construct: range 111-228; Bought recombinant protein (Abcam); also called RXRa-DBD; RXR-alpha DBD
- T1 sequence (looked up): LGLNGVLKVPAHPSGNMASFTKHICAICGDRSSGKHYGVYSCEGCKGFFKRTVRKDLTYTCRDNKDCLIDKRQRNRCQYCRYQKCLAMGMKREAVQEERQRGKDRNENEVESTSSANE
- measurementProtocol: plate binding assay, 800 ng/well SA488-labelled peptide on 100 ng/well adsorbed domain
Ends that are not written are not given here. * marks the point of attachment. Biotin = O=C1N[C@H]2[C@H](CS[C@H]2CCCCC(=O)*)N1

[[record]]
binder = "Biotin-HRGFYRKRQCRSSQGQRRGPCW (cysteine pairing not given here; also: labelled with Streptavidin-Alexa 488 conjugate (SA488), Synthetic immodulin peptide derived from IGFBP-6; also called immodulin peptide-6) [imm6]"
measuredresult = "22.9 relative to imm3 binding (=100)"

[[record]]
binder = "Biotin-RNGNFHPKQCHPALDGQRGKCW (cysteine pairing not given here; also: labelled with Streptavidin-Alexa 488 conjugate (SA488), Synthetic immodulin peptide derived from IGFBP-4) [imm4]"
measuredresult = "3.2 relative to imm3 binding (=100)"


Indicate the recorded fluorescence relative to imm3 binding (=100) value for this binder: Biotin-KKGFYKKKQCRPSKGRKRGFCW (cysteine pairing not given here; also: labelled with Streptavidin-Alexa 488 conjugate (SA488), Synthetic immodulin peptide derived from IGFBP-3; also called immodulin peptide-3) [imm3]
22.2 relative to imm3 binding (=100)

Tell us which fluorescence relative to imm3 binding (=100) value is on record for Biotin-RKGFYKRKQCKPSRGRKRGICW (cysteine pairing not given here; also: labelled with Streptavidin-Alexa 488 conjugate (SA488), Synthetic immodulin peptide derived from IGFBP-5; also called immodulin peptide-5) [imm5]
22.7 relative to imm3 binding (=100)
